Parameter: GI50. Scope: all listed entries.
System: A375 cells (malignant melanoma)
Test: Inhibition of cancer cell proliferation, A375 (CellTiterGlo, 72 hours)
Type: cell-based
Conditions: Homo sapiens, A-375
measure: GI50

1) C=CC(=O)Nc1ccccc1Nc1nc(N[C@@H]2CCN(C(C)=O)C2)ncc1C(F)(F)F :: > 1 µM
2) C=CC(=O)Nc1cc(OC)ccc1Nc1nc(Nc2cc(OC)nc(N3CCN(CC)CC3)c2)ncc1C(F)(F)F :: < 0.1 µM
3) C=CC(=O)Nc1cc(CN2CCN(C(C)=O)CC2)ccc1Nc1nc(Nc2cc(OC)ncc2C)ncc1C(F)(F)F :: 0.101 to 0.5 µM
4) C/C=C/S(=O)(=O)Nc1cc(F)ccc1Nc1nc(N[C@H]2CCCN(C(=O)CO)C2)ncc1C(F)(F)F :: > 1 µM
5) C=C(F)C(=O)Nc1ccccc1Nc1nc(N[C@H]2CCCN(C(C)=O)C2)ncc1C(F)(F)F :: < 0.1 µM
6) C=CC(=O)Nc1ccccc1Nc1nc(N[C@H]2CCCN(C(=O)CO)C2)ncc1C(F)(F)F :: < 0.1 µM
7) C=CC(=O)Nc1ccccc1Nc1nc(Nc2cc(OC)nc(N3CCCC3)c2)ncc1C(F)(F)F :: < 0.1 µM

---

Target: MEK1 activated ERK1 (Homo sapiens)
Construct: purchased Millipore (Billerica, Mass.) 14-439-K
Sequence (P27361 whole entry): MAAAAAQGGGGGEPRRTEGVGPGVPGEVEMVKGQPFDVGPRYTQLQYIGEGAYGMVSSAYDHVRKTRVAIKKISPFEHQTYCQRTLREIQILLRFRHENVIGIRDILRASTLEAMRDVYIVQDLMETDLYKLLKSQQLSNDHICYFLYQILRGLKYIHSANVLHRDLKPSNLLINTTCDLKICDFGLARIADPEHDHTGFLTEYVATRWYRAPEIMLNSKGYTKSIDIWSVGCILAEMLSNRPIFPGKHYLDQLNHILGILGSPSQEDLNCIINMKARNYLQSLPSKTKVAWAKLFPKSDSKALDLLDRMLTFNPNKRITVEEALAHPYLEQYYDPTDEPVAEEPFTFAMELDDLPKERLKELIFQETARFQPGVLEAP
Test: Omnia continuous-read kinase assay for potency against MEK1 activated ERK1
Type: biochemical
Settings: MEK1 activated ERK1, ATP at KM; read-out: ERK1 Omnia WT ATP KM IC50
pIC50: −log10 of the molar value.
measure: pIC50

1) C=CC(=O)Nc1cc(F)ccc1Nc1nc(N[C@@H]2CCC[C@H](C(N)=O)C2)ncc1Cl (racemic) :: > 7.00
2) C=CC(=O)Nc1ccccc1Nc1nc(N[C@H]2CCCN(C=O)C2)ncc1Cl :: > 7.00
3) C=CC(=O)Nc1ccccc1Nc1nc(N[C@H]2CCN(C(=O)CO)C2)ncc1C(F)(F)F :: 6.30 to 7.00
4) CC(=O)N1CCC[C@H](Nc2ncc(C(F)(F)F)c(N[C@H]3[C@@H](C(N)=O)[C@@H]4C=C[C@H]3C4)n2)C1 :: 6.30 to 7.00
5) C=C(C)S(=O)(=O)Nc1cc(C)ccc1Nc1nc(Nc2cc(C(C)=O)ccc2C)ncc1C(F)(F)F :: 6.30 to 7.00
6) C=CC(=O)Nc1cc(F)ccc1Nc1nc(N[C@H]2CC[C@@H](F)CC2)ncc1C(F)(F)F :: 6.30 to 7.00
7) C=CC(=O)Nc1cc(C)ccc1Nc1nc(Nc2cc(OC)nc(N3CCN(C(C)=O)CC3)c2)ncc1C(F)(F)F :: 6.30 to 7.00

---

System: HT-29 cells (colorectal adenocarcinoma)
Experiment: Inhibition of cancer cell proliferation, HT-29 (CellTiterGlo, 72 hours)
Format: cell-based
Settings: Homo sapiens
measure: GI50

1. CCC(=O)Nc1ccccc1Nc1nc(N[C@H]2CCCN(C(=O)CO)C2)ncc1C(F)(F)F :: 101 to 500 nM
2. C=CC(=O)Nc1cc(C)ccc1Nc1nc(Nc2cc(OC)nc(N3CCOCC3)c2)ncc1C(F)(F)F :: < 100 nM
3. C=CC(=O)Nc1cc(OC)ccc1Nc1nc(Nc2cc(C(N)=O)ccc2C)ncc1Cl :: < 100 nM
4. C=C(C)S(=O)(=O)Nc1cc(C)ccc1Nc1nc(N[C@H]2CCCN(C(=O)CO)C2)ncc1C(F)(F)F :: 101 to 500 nM
5. C=CC(=O)Nc1cc(CN2CCN(C(C)=O)CC2)ccc1Nc1nc(Nc2cc(OC)ncc2C)ncc1C(F)(F)F :: 101 to 500 nM
6. C=CC(=O)Nc1ccccc1Nc1nc(N[C@H]2CCCN(C(=O)CO)C2)ncc1C(F)(F)F :: < 100 nM
7. C=CC(=O)Nc1cc(Cl)ccc1Nc1nc(Nc2cc(OC)ncc2C)ncc1Cl :: 501 to 999 nM

---

Quick reference: EC50 of the listed items.
Test system: ERK1/2 phosphorylation of p90RSK in HCT116 cells
Assay: Detection of total and phospho-RSK by MSD ELISA (HCT116)
Format: cell-based
Conditions: Homo sapiens, HCT-116, read-out: ERK1/ERK2 PRSK HCT116 EC50
Method: Detection of Total and Phospho-RSK by MSD ELISA (HCT116) The protocol below describes an assay to measure the kinase activity of ERK1/2 to phosphorylate a substrate, p90RSK, in the presence or absence of a test compound. HCT116 cells were grown in RPMI/10% FBS. […] The plate was incubated for 1 hr at room temperature on a shaker, followed by three washes. […] Next, 150 uL/well 1×MSD Read buffer was added and the plate was analyzed by the MSD reader.
measure: EC50

1) C=CC(=O)Nc1cc(C)ccc1Nc1nc(Nc2cc(N[C@H]3CC[C@](C)(O)CC3)nc(OC)c2)ncc1C(F)(F)F [Compound I-327] :: < 100 nM
2) C=CC(=O)Nc1cc(OC(F)(F)F)ccc1Nc1nc(Nc2cc(OC)ncc2C)ncc1C(F)(F)F [Compound I-407] :: 101 to 500 nM
3) C=CC(=O)Nc1cc(O[C@H](C)C(=O)N2CCN(S(C)(=O)=O)CC2)ccc1Nc1nc(Nc2cc(OC)ncc2C)ncc1C(F)(F)F [Compound I-410] :: 101 to 500 nM
4) C=CC(=O)Nc1cc(C)ccc1Nc1nc(Nc2cc(OC)nc(N3CCC(O)CC3)c2)ncc1C(F)(F)F [Compound I-332] :: 101 to 500 nM
5) C=CC(=O)Nc1cc(CN2CCN(C(C)=O)CC2)ccc1Nc1nc(Nc2nc(OC)ncc2C)ncc1C(F)(F)F [Compound I-382] :: 501 to 999 nM
6) C=CC(=O)Nc1cc(C)ccc1Nc1nc(NC2COC2)ncc1C(F)(F)F [Compound I-420] :: > 1000 nM
7) C=CC(=O)Nc1cc(OCC(=O)N2CCN(C(C)=O)CC2)ccc1Nc1nc(Nc2cc(OC)ncc2C)ncc1C(F)(F)F [Compound I-404] :: 101 to 500 nM
8) C=CC(=O)Nc1ccccc1Nc1nc(Nc2cc(OC)nc(N3CCN(S(C)(=O)=O)CC3)c2)ncc1C(F)(F)F [Compound I-290] :: 501 to 999 nM
9) C=CC(=O)Nc1cc(C)ccc1Nc1nc(Nc2ccc3ocnc3c2)ncc1C(F)(F)F [Compound I-375] :: > 1000 nM
10) C=CC(=O)Nc1c(Nc2nc(Nc3cc(OC)ncc3C)ncc2C(F)(F)F)ccc(C)c1F [Compound I-367] :: 501 to 999 nM
11) C=CC(=O)Nc1cc(C)ccc1Nc1nc(Nc2nc(OC)ncc2C#N)ncc1C(F)(F)F [Compound I-346] :: 101 to 500 nM
12) C=CC(=O)Nc1cc(C)ccc1Nc1nc(Nc2cc(OC)nc(N3CCN(C)CC3)c2)ncc1C(F)(F)F [Compound I-325] :: < 100 nM
13) C=CC(=O)Nc1cc(CN2CCN(C(=O)c3cccnc3)CC2)ccc1Nc1nc(Nc2cc(OC)ncc2C)ncc1C(F)(F)F [Compound I-389] :: < 100 nM
14) C=CC(=O)Nc1cc(C)ccc1Nc1nc(Nc2cc(P(C)(C)=O)ncc2C)ncc1C(F)(F)F [Compound I-343] :: 101 to 500 nM
15) C=CC(=O)Nc1cc(CN2CCN(C(=O)c3cnccn3)CC2)ccc1Nc1nc(Nc2nc(OC)ncc2C)ncc1C(F)(F)F [Compound I-393] :: 501 to 999 nM
16) C=CC(=O)Nc1cc(C)ccc1Nc1nc(Nc2nc(OC)ncc2C)ncc1C(F)(F)F [Compound I-347] :: 101 to 500 nM
17) C=CS(=O)(=O)Nc1cc(C)ccc1Nc1nc(Nc2cc(OC)ncc2C)ncc1C(F)(F)F [Compound I-333] :: > 1000 nM
18) C=CC(=O)Nc1cc(C)ccc1Nc1nc(Nc2cc(OC)nc(N3CCN(C(C)=O)CC3)c2)ncc1Cl [Compound I-296] :: < 100 nM
19) C=CC(=O)Nc1cc(CN2CCN(C(C)=O)C[C@@H]2C)ccc1Nc1nc(Nc2cc(OC)ncc2C)ncc1C(F)(F)F [Compound I-421] :: 101 to 500 nM
20) C=CC(=O)Nc1cc(C)ccc1Nc1nc(Nc2nc(O)ncc2Cl)ncc1C(F)(F)F [Compound I-363] :: > 1000 nM
21) C=CC(=O)Nc1cc(C(F)(F)F)ccc1Nc1nc(Nc2cc(OC)ncc2C)ncc1C(F)(F)F [Compound I-323] :: 101 to 500 nM
22) C=CC(=O)Nc1ccccc1Nc1nc(Nc2ccnc(NC)c2)ncc1C(F)(F)F [Compound I-321] :: > 1000 nM
23) C=CC(=O)Nc1cc(C)ccc1Nc1nc(Nc2cc(OC)nc(N(C)CCOC)c2)ncc1C(F)(F)F [Compound I-336] :: 101 to 500 nM

// data source = patent US9561228B2
